Where these numbers come from: patent US11224565B2

- Test system: Aging related changes of skin, nail and hair
- test-protocol: Summary of test results in volunteer subjects: aging related changes
- Assay type: in vivo, human
- test-conditions: efficacy grade
Peptide text beside a SMILES is read from it.
assay-readout: AG

>  <compound>
CC(=O)N[C@@H](CC(C)C)C(=O)NCC(=O)O [N-Ac-L-Leu-Gly-OH] (Ac-Leu-Gly-OH)

>  <system-under-test>
Aging related changes of skin, nail and hair

>  <measured-value>
2+ (2+: 50% Efficacy)

$$$$
>  <compound>
CC[C@H](C)[C@H](NC(C)=O)C(=O)NCC(=O)O [N-Ac-L-Ile-Gly-OH] (Ac-Ile-Gly-OH)

>  <system-under-test>
Aging related changes of skin, nail and hair

>  <measured-value>
2+ (2+: 50% Efficacy)

$$$$
>  <compound>
CC(=O)N[C@@H](CS)C(=O)N[C@@H](Cc1ccc(O)cc1)C(N)=O [N-Ac-L-Cys-L-Tyr-NH2] (Ac-Cys-Tyr-NH2)

>  <system-under-test>
Aging related changes of skin, nail and hair

>  <measured-value>
2+ (2+: 50% Efficacy)

$$$$

So what's the measured AG for this one? CC(=O)N[C@@H](Cc1ccc(O)cc1)C(=O)N[C@@H](Cc1ccc(O)cc1)C(N)=O [N-Ac-L-Tyr-L-Tyr-NH2] (Ac-Tyr-Tyr-NH2)
4+ (4+: 95-100% Efficacy)

Could you tell me which AG is on file for CC(=O)N[C@H](C(=O)N[C@@H](C)C(N)=O)C(C)C [N-Ac-L-Val-L-Ala-NH2] (Ac-Val-Ala-NH2) ?
4+ (4+: 95-100% Efficacy)

Entry under review: CC(=O)N[C@@H](CC(C)C)C(=O)N[C@@H](C)C(N)=O [N-Ac-L-Leu-L-Ala-NH2] (Ac-Leu-Ala-NH2) . Reported AG?
3+ (3+: 75% Efficacy)

Looking for the measured AG of `CC(=O)NCCC(=O)N[C@@H](Cc1c[nH]cn1)C(N)=O` , can you help?
2+ (2+: 50% Efficacy)

###

Consider the following molecules and their measured DI readings.
- System: Deranged immune disorders and inflammation
- test-protocol: Summary of test results in volunteer subjects: deranged immune disorders and inflammation
- Type: in vivo, human
- test-conditions: efficacy grade
Peptide text beside a SMILES is read from it.

>  <molecule>
CCC(=O)N[C@@H](CC(C)C)C(=O)NCC(=O)O [N-Pr-L-Leu-Gly-OH] (HELM PEPTIDE1{[CCC(=O)[*:2]].L.G}$$$$V2.0)

>  <DI>
3+ (3+: 75% Efficacy)

$$$$
>  <molecule>
CC(=O)N[C@@H](Cc1ccc(O)cc1)C(=O)N[C@@H](Cc1ccc(O)cc1)C(=O)NN [N-Ac-L-Tyr-L-Tyr-NHNH2] (HELM PEPTIDE1{[ac].Y.Y.[NN[*:1]]}$$$$V2.0)

>  <DI>
2+ (2+: 50% Efficacy)

$$$$
>  <molecule>
CC(=O)NNC(=O)[C@H](Cc1ccc(O)cc1)NC(=O)[C@H](Cc1ccc(O)cc1)NC(C)=O [N-Ac-L-Tyr-L-Tyr-NHNHAc]

>  <DI>
4+ (4+: 95-100% Efficacy)

$$$$
>  <molecule>
CC(=O)N[C@@H](Cc1ccc(O)cc1)C(=O)N[C@@H](Cc1ccc(O)cc1)C(N)=O [N-Ac-L-Tyr-L-Tyr-NH2] (Ac-Tyr-Tyr-NH2)

>  <DI>
4+ (4+: 95-100% Efficacy)

$$$$
>  <molecule>
CC(=O)N[C@@H](CS)C(=O)N[C@@H](CS)C(N)=O [N-Ac-L-Cys-L-Cys-NH2] (Ac-Cys-Cys-NH2)

>  <DI>
2+ (2+: 50% Efficacy)

$$$$

Look up DI with Deranged immune disorders and inflammation for this molecule: CC(=O)NCC(=O)N1CCC[C@H]1C(N)=O [N-Ac-Gly-L-Pro-NH2] (Ac-Gly-Pro-NH2)
2+ (2+: 50% Efficacy)
